These entries and their values trace back to the domain aggregation screens of Martell et al. (2025).

- Test: soluble fraction after stress (log2 fold change); higher = more stays soluble; pooled small domains, quantitative proteomics;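 also: 20 min heating vs room temperature control held 20 min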
- Condition Info: stress: 75 degC
Endpoint Name: soluble fraction (log2)

Known results for sequences:
HMDLGEQIIEKLRAAGGFLAITDKSPAEEIYELFATSKKNYKKAVGGLYKKGLLVIEDDGIRLTPAGR | -0.503
HMDKSPVLQLNRDVPAGQQISADDFRTVEIGADGAFRSVPSSDLNAMVGSYAKVRLIAGTLLAREALQSG | 0.0261
HMHSFFGDNIKKLRTAKKMSQEQLADIFGITKAGISYWETGRSEPNFATVQKLADFFGVTTSDLLGEA | -0.43

Attention now turns to another entry.
### Prompt Look up soluble fraction (log2): `HMPEGTYLEKLAIENNNLQLIGLSREASQLVQLLQDAPQWRKVNLTGVLQADGAASGRDRFTMTAELQ`
### Response 0.0999

* * *

- Test: soluble fraction after stress (log2 fold change); higher = more stays soluble; pooled small domains, quantitative proteomics
- Condition Info: stress: 75 degC
Items are presented alongside their recorded soluble fraction (log2).
Reply briefly: the number, and no unit.

Known results for sequences:
HMEEEVKVPKIKGLTEAEAKAKLKSEGLESGTARSAYSDTVEEGHIISQSIQEGTKVPKGTAVSYEVSKGK | 0.149
HMAMTRTEYLNQLKHYLKRLPHTDYEEAMDYFKEYFEEAGPENEAQVIQDLGNPKEAAYEILSQLL | -0.0595
HMAAHHIILEEREQLSVSGVEEVESFDENTIVMLTNRGTLIVRGEELHIEKLSLDGGDLRVEGSIDSLTYE | -0.465
HMGNGDTNERIATLMQILAKQESIINQYGLENPVVSPQMYVRTLKKVVELSGFKDASSYFADIPDGWKA | 0.0405
HMQISMQNIASVKIDDLSDEQIQEFSTKYTAAGYSFPDVENVAKQKGMPSSEIEKLRQRVLTAQNTQEK | 0.283

### Prompt Look up soluble fraction (log2): `HMPGVTTQLHRLNGTEETYIIKRGDGVLEIDGEKSELQLGDAIIIPAGASQKISNIGDEDLE`
### Response -0.159

### Prompt Look up soluble fraction (log2): `HMATPIAGTKYTLNNTPVYGTEKGPSIGKRSGIYYTWDATVRNGRIRMTNSPARVGVPWQVSFWVEVNKL`
### Response -2.9

### Prompt Look up soluble fraction (log2): `HMGGGEYTVAKGDTLWKIAAQTLGSPTRYAEIYNLNKDVIEETARGRGKRDSSNGHWLFPGTALKIPGT`
### Response 0.421

* * *

- Test: soluble fraction after stress (log2 fold change); higher = more stays soluble; pooled small domains, quantitative proteomics
- Condition Info: stress: 75 degC
Response key: True means soluble fraction (log2) >= -0.2; False means soluble fraction (log2) < -0.2.

HMDIVLPFSFAKRHGVVLSERQGETELLYLKGLPVRVLAEARRVLRQEFTVRQVEQAVFDKALSESYQN | False
HMIEGSSDWKPNMILDDGGDLTKIIHEEYQDLLDDIRGLSEETTTGVLRLYEMEKENSLAVPAINVND | True
HMYSIDNPPDWLKNLPKGAIRIGVEVFNQVLSKADDEDRARMAAWSAIKAKYEKADDGQWQPKAA | True
HMGQLVVHQIKGEASRLDKFLVVNIPKYSRSVWREMINNGSVQVNGRVVKPHLLVKEGDIITWSS | False
HMNQWQLLSEDGAILGTRVLYHPHETEQPFTRSLSGVKIPAHVQSVTIRAGDLVHGFGGREIQMQLPPIV | True

### Prompt Can `HMGVSLNELAYRRFKQALVTLSYKPGEYLNTAQVMNDLDMGRTPINQAIHRLANEGLLQVIPRKGVMVS` be said to have soluble fraction (log2) at or above -0.2?
### Response False

### Prompt Can `HMINITALVKQLGGVDISKFNSAFKLLQQGKPLNTISNKVMADTFVALMKNSDEALNTKFRAAFKKI` be said to have soluble fraction (log2) at or above -0.2?
### Response False

### Prompt Can `HMRDTAKTLLAMEVVGENNKKNLQAFGIQKGDQNYQTAVVVRLMQKALMEGDTSAIRLIGELTGD` be said to have soluble fraction (log2) at or above -0.2?
### Response True

### Prompt Can `HMPEVYPFEVAEDDAGKRLDVFLSEEIEEFTRSFIQKLIAGGLASVNRAPARASYRVKPRDLVELQVPE` be said to have soluble fraction (log2) at or above -0.2?
### Response False

### Prompt Can `HMSKPILSFVDPEKDPSHYVKRYITEETYKDWFSEHFPDYTLYEGIGITQEEYRNIVNELTKP` be said to have soluble fraction (log2) at or above -0.2?
### Response False
